Every entry's value here was drawn from patent US20150174137A1.

Assay: Solubility of finafloxacin in three magnesium chloride-containing solutions at various pH
Format: physicochemical
Details: aqueous with cosolvent or surfactant or cyclodextrin; TABLE 3C magnesium chloride-containing solution; pH 7.67
Quantity measured: solubility (µg/mL)
Could you give me the number in µg/mL? Just the number is fine.

State, in one line, measured solubility of N#Cc1c(N2C[C@@H]3NCCO[C@H]3C2)c(F)cc2c(=O)c(C(=O)O)cn(C3CC3)c12 [Finafloxacin]
8440

* * *

Experiment: Solubility of finafloxacin in three magnesium chloride-containing solutions at various pH
Format: physicochemical
Conditions: aqueous with cosolvent or surfactant or cyclodextrin; TABLE 3C magnesium chloride-containing solution; pH 7.16
Quantity measured: solubility (µg/mL)
Could you give me the number in µg/mL? Just the number is fine.

State, in one line, measured solubility of N#Cc1c(N2C[C@@H]3NCCO[C@H]3C2)c(F)cc2c(=O)c(C(=O)O)cn(C3CC3)c12
4590

* * *

Experiment: Solubility of finafloxacin in three magnesium chloride-containing solutions at various pH
Format: physicochemical
Settings: aqueous with cosolvent or surfactant or cyclodextrin; TABLE 3A magnesium chloride-containing solution; final pH 6.23
Quantity measured: solubility (µg/mL)
Could you give me the number in µg/mL? Just the number is fine.

State, in one line, measured solubility of N#Cc1c(N2C[C@@H]3NCCO[C@H]3C2)c(F)cc2c(=O)c(C(=O)O)cn(C3CC3)c12
6660

* * *

Assay: Solubility of finafloxacin in three magnesium chloride-containing solutions at various pH
Type: physicochemical
Settings: aqueous with cosolvent or surfactant or cyclodextrin; TABLE 3A magnesium chloride-containing solution; final pH 5.73
Quantity measured: solubility
Enter the number, and then the unit.

State, in one line, measured solubility of N#Cc1c(N2C[C@@H]3NCCO[C@H]3C2)c(F)cc2c(=O)c(C(=O)O)cn(C3CC3)c12
3700 µg/mL

* * *

Test: Solubility of finafloxacin in three magnesium chloride-containing solutions at various pH
Format: physicochemical
Conditions: aqueous with cosolvent or surfactant or cyclodextrin; TABLE 3C magnesium chloride-containing solution; pH 6.19
Quantity measured: solubility (µg/mL)
Could you give me the number in µg/mL? Just the number is fine.

State, in one line, measured solubility of N#Cc1c(N2C[C@@H]3NCCO[C@H]3C2)c(F)cc2c(=O)c(C(=O)O)cn(C3CC3)c12
1980

* * *

Assay: Solubility of finafloxacin in three magnesium chloride-containing solutions at various pH
Format: physicochemical
Conditions: aqueous with cosolvent or surfactant or cyclodextrin; TABLE 3B magnesium chloride-containing solution; pH 6.15
Quantity measured: solubility

State, in one line, measured solubility of N#Cc1c(N2C[C@@H]3NCCO[C@H]3C2)c(F)cc2c(=O)c(C(=O)O)cn(C3CC3)c12 [Finafloxacin]
3.25 mg/mL

* * *

Assay: Solubility of finafloxacin in three magnesium chloride-containing solutions at various pH
Format: physicochemical
Details: aqueous with cosolvent or surfactant or cyclodextrin; TABLE 3C magnesium chloride-containing solution; pH 5.22
Quantity measured: solubility (µg/mL)
Could you give me the number in µg/mL? Just the number is fine.

State, in one line, measured solubility of N#Cc1c(N2C[C@@H]3NCCO[C@H]3C2)c(F)cc2c(=O)c(C(=O)O)cn(C3CC3)c12
1190

* * *

Test: Solubility of finafloxacin in three magnesium chloride-containing solutions at various pH
Type: physicochemical
Conditions: aqueous with cosolvent or surfactant or cyclodextrin; TABLE 3A magnesium chloride-containing solution; final pH 7.12
Quantity measured: solubility (µg/mL)
Could you give me the number in µg/mL? Just the number is fine.

State, in one line, measured solubility of N#Cc1c(N2C[C@@H]3NCCO[C@H]3C2)c(F)cc2c(=O)c(C(=O)O)cn(C3CC3)c12
8650
